Examples of binders with documented % Relative Activity vs native GLP-1 follow.
- test_system: GLP-1 receptor (human, UniProt P43220 24-463)
- protocol_summary: cell-based or functional assay
No end group written: not given here.
Quick reminder: number only, in %, skip the unit.

// below: answered binders
HSQGTFTSDYSKYLDERRAKDFVQWLMNT-NH2 (not fully specified; also: further groups not given here) [Glucagon Analog 67]; 47
HSQGTFTSDYSKYLDERRAKEFVQWLMNT-NH2 (not fully specified; also: further groups not given here) [Glucagon Analog 68]; 44
HSQGTFTSDYSKYLDEKRAKEFVCWLLDGGPSSGAPPPS-NH2 (not fully specified; also: further groups not given here) [Glucagon Analog 61]; 39

Pending binder:
// field: % Relative Activity vs native GLP-1; key: HSQGTFTSDYSKYLDEKRAKEFVQWLMNT-NH2 (not fully specified; also: further groups not given here) [Glucagon Analog 65] ; value = 64
